- assayed system: RET (658-1114) (Homo sapiens, UniProt P07949)
- Construct: 658-1114; expressed in transfected cells; host or cells: 293T.144 (293T cells, generated in-house)
- Sequence (P07949 658-1114): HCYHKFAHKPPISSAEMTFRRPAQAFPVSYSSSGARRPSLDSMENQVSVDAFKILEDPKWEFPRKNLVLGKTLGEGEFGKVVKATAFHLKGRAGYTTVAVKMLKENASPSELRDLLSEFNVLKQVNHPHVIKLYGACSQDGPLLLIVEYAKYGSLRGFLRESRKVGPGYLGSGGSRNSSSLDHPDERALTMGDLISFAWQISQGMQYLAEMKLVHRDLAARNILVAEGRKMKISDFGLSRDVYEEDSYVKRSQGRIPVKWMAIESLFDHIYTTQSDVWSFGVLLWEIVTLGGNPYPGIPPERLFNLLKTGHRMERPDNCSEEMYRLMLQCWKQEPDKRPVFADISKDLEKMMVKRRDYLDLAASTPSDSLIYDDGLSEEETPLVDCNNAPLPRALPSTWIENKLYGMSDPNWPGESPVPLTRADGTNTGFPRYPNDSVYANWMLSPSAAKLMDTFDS
- test name: HiBiT-Degradation, RET wild-type degradation assay (Nano-Glo HiBiT Lytic), 293T.144 cells
- Type: cell-based
- measurement setup: RET wild-type
readout: HiBiT-Degradation 293T.144 RET (658-1114) 6.0 hours (IP) [nM]

compound | assayed system | result
CCC1(C(=O)NC(C)C)CCN(c2ccc(-c3nc(-c4cnn(C5CCN(C(=O)CC6(O)CCN(c7ccc(NC8CCC(=O)NC8=O)c(F)c7)CC6)CC5)c4)cn4ncc(C#N)c34)cn2)CC1 (stereo not drawn) [Compound 69] | RET (658-1114) (Homo sapiens, UniProt P07949) | ++++ (< 50 nM = ++++)
CCC1(C(=O)NC2CCC2)CCN(c2ccc(-c3nc(-c4cnn(C5CCN(C(=O)CC6(O)CCN(c7ccc(NC8CCC(=O)NC8=O)cc7F)CC6)CC5)c4)cn4ncc(C#N)c34)cn2)CC1 (stereo not drawn) [Compound 81] | RET (658-1114) (Homo sapiens, UniProt P07949) | ++++ (< 50 nM = ++++)
CCC1(C(=O)NC(C)C)CCN(c2ccc(-c3cc(-c4cnn([C@H]5CC[C@@H](N6CCC(c7ccc(NC8CCC(=O)NC8=O)cc7F)CC6)CC5)c4)cn4ncc(C#N)c34)cn2)CC1 (stereo partly drawn) [Compound 88] | RET (658-1114) (Homo sapiens, UniProt P07949) | ++++ (< 50 nM = ++++)

====

Parameter Emax: see the listing below.
- assayed system: RET (658-1114) (Homo sapiens, UniProt P07949)
- Construct: 658-1114; expressed in transfected cells; host or cells: 293T.144 (293T cells, generated in-house)
- test name: HiBiT-Degradation, RET wild-type degradation assay (Nano-Glo HiBiT Lytic), 293T.144 cells
- Format: cell-based
- measurement setup: 6.0 hours, % remaining protein, read-out: 293T.144 RET (658-1114) 6.0 hours (Emax)

Please review the following examples before continuing.
molecule | result
N#Cc1cnn2cc(-c3cnn([C@H]4CC[C@H](N5CCN(c6ccc(NC7CCC(=O)NC7=O)cc6F)CC5)CC4)c3)nc(-c3ccc(N4CC5COCC(C4)N5Cc4ccccn4)nc3)c12 (single isomer, unassigned) | < 30%
COc1ccc(CC2(OC)CCN(c3ccc(-c4nc(-c5cnn([C@H]6CC[C@@H](N7CCN(c8ccc(NC9CCC(=O)NC9=O)cc8F)CC7)CC6)c5)cn5ncc(C#N)c45)cn3)CC2)cn1 (single isomer, unassigned) | < 30%
CCC1(C(=O)NC2CCC2)CCN(c2ccc(-c3nc(-c4cnn([C@H]5CC[C@H](CN6CCN(c7ccc(N[C@H]8CCC(=O)NC8=O)cc7F)CC6)CC5)c4)cn4ncc(C#N)c34)cn2)CC1 | < 30%

INPUT: // Emax lookup, key: CCC1(C(=O)NC(C)C)CCN(c2ccc(-c3nc(-c4ccc(C5CCN(C(=O)CN6CC(c7ccc(NC8CCC(=O)NC8=O)cc7F)C6)CC5)cc4)cn4ncc(C#N)c34)cn2)CC1 (stereo not shown)
OUTPUT: < 30%

Values compiled from patent US12661410B2.
